- System: Daudi cells
- Assay Explanation: Proliferation inhibitory activity on hematologic neoplasm cells, Daudi
- Type: cell-based
- Test Parameters: Homo sapiens, Daudi, 72 h; 3 days, Alamar Blue
Outcome Measure: pIC50
The value called pIC50 is obtained by taking minus log10 of the concentration in mol/L.

Completed entries (count: 6):
| Compound | Study Target | Outcome Measure | Measured Value |
| --- | --- | --- | --- |
| Oc1cccc2c1nc(C(F)F)n2-c1nc(N2CCOCC2)nc(N2CCOCC2)n1 | Daudi cells | pIC50 | 8.31 |
| Oc1ccc2nc(C(F)F)n(-c3nc(N4CCOCC4)nc(N4CCOCC4)n3)c2c1 | Daudi cells | pIC50 | 7.99 |
| OCC1CCCN1c1nc(N2CCOCC2)nc(-n2c(C(F)F)nc3c(O)cccc32)n1 (stereo not shown) | Daudi cells | pIC50 | 8.08 |
| CC1(C)CN(c2nc(N3CCOCC3)nc(-n3c(C(F)F)nc4c(Cl)cc(N)cc43)n2)CCO1 | Daudi cells | pIC50 | 7.67 |
| OCc1nc2ccccc2n1-c1nc(N2CCOCC2)nc(N2CCOCC2)n1 | Daudi cells | pIC50 | 6.42 |
| Nc1cccc2c1nc(C(F)F)n2-c1nc(N2CCOCC2)nc(N2CCOCC2)n1 | Daudi cells | pIC50 | 7.18 |

Turning now to a further record.
Prompt line: Data request, read-out pIC50, for Cc1cccc2c1nc(C(F)F)n2-c1nc(N2CCOCC2)nc(N2CCOCC2)n1
Response line: 6.80
